- Target: NPR-B (Homo sapiens, UniProt P20594)
- Construct: endogenous membrane guanylyl cyclase receptor in intact CEPI-17-CL4 cells; NPR-A also expressed; homodimer
- Sequence (P20594 23-1047): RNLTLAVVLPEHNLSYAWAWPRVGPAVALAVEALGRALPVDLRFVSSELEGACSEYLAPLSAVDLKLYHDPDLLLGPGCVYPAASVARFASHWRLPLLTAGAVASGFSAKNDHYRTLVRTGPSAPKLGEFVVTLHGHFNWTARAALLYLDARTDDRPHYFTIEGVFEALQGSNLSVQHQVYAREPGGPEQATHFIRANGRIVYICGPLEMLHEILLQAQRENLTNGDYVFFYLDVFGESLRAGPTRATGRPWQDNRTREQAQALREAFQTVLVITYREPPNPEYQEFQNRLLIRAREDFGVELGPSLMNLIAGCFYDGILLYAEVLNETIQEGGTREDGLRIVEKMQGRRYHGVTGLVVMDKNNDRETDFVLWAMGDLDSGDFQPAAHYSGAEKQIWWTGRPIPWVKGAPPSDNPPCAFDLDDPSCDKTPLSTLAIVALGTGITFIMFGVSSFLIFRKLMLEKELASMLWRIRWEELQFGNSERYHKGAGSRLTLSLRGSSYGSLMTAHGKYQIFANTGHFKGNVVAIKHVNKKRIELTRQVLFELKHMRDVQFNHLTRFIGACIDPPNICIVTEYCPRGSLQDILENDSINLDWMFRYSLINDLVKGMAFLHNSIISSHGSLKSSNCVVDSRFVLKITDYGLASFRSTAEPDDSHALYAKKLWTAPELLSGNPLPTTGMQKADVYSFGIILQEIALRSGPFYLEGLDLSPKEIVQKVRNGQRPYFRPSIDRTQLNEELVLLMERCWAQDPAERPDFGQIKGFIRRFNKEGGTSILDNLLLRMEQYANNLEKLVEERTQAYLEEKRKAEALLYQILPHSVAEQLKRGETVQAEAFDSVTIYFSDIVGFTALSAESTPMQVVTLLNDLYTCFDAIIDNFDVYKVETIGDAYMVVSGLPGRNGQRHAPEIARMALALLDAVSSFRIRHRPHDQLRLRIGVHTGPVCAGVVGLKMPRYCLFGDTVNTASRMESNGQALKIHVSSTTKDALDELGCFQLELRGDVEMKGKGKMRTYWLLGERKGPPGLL
- Measurement notes: inhibition of CNP fragment-induced cGMP accumulation in CEPI-17-CL4 cells, enzyme immunoassay
- Measurement conditions: 30 nM CNP fragment as agonist, 1 mM IBMX, 23 °C, 20 min pre-incubation; partial inhibition; native cells expressing NPR-A and NPR-B; compound described as NPR-A antagonist
Attribute measured: Ki (µM)
Report as a plain number; the unit µM is understood.

Lookup result for O=C1Nc2ccccc2C1=O [isatin] ; measured Ki: 5.3
